Data provenance: the supplement of paper PMC8728848

- System name: Fuc(a1-2)[GalNAc(b1-3)]Gal
- Test details: glycan array binding signal (z-score within array); higher = stronger binding
- Measurement context: glycan notation: IUPAC condensed, linker removed
Many of the other results were omitted from the sample, so the strongest signals are more common in it than they were.
Parameter measured: glycan array binding signal (z-score)
Give your answer as a number; write no unit.

Using the record for Mcg Light Chain Dimer (Homo sapiens), Q6PIK1 (protein) MAGFPLLLTLLTHCAGSWGQSLLTQPPSVSGTPGQRVTISCSGSSSNIGINYVYWYQQIPGTAPKLLISTNDQRPSGVPDRFSGSKSGTSASLAIGGLRSEDEAHYYCAAWDDSMSGPGYAFGTGTKVTVLRQPKANPTVTLFPPSSEELQANKATLVCLISDFYPGAVTVAWKADGSPVKAGVETTKPSKQSNNKYAASSYLSLTPEQWKSHRSYSCQVTHEGSTVEKTVAPTECS , report its glycan array binding signal (z-score). 0.344

Next: Si Bti9 1b-HA (Solanum lycopersicum) (protein) MFESRPRSVLSLGVFVILVYLSSVPLPVNSQCNRGCDLALASFYVWRGSNLTLISEMFSTSIADIVSYNNRDNIPNQDSVIAGTRINIPFRCDCLNDGEVLGHAFPYRVKSGDTYDLVARNYSDLTTAQWMMKFNSYPENNIPNTVNLSVVVNCSCGNSDVSKDFGLFVTYPVRAEDNLTSVASAANVSEDIIRRYNPAAVSILDIGQGIIYIPGRDRNGNFPPLPTSTDGLSGGAKAPLFFNPAFLYKVVELKLAGRSRTSGYPYDVPDYAGYPYDVPDYALEVLFQ -0.405

Next: Gal 3 (Homo sapiens), P17931 (protein) MADNFSLHDALSGSGNPNPQGWPGAWGNQPAGAGGYPGASYPGAYPGQAPPGAYPGQAPPGAYHGAPGAYPGAPAPGVYPGPPSGPGAYPSSGQPSAPGAYPATGPYGAPAGPLIVPYNLPLPGGVVPRMLITILGTVKPNANILDFQRGNDVAFHFNPRFNENNRRVIVCNTKLDNNWGREERQSVFPFESGKPFKIQVLVEPDHFKVAVNDAHLLQYNHRVKKLNEISKLGISGDIDLTSASYTMI -0.382

Next: MAA (Maackia amurensis), P0DKL3 (protein) MATSNSKPTQVLLATFLTFFFLLLNNVNSSDELSFTINNFVPNEADLLFQGEASVSSTGVLQLTRVENGQPQKYSVGRALYAAPVRIWDNTTGSVASFSTSFTFVVKAPNPDITSDGLAFYLAPPDSQIPSGSVSKYLGLFNNSNSDSSNQIVAVELDTYFAHSYDPWDPNYRHIGIDVNGIESIKTVQWDWINGGVAFATITYLAPNKTLIASLVYPSNQTTFSVAASVDLKEILPEWVRVGFSAATGYPTEVETHDVLSWSFTSTLEANCDAATENNVHIARYTA -0.178

Next: CLECb-Precomplexed (Mus musculus), P43025 (protein) MAKNGLVLCILVVSLLLDQTDGYPSRMKARKHSKRRVKAKDDDLKSQVEKLWREVNALKEMQALQTVCLRGTKVHKKCYLASEGLKHYHEANEDCISKGGTLVVPRNSDEINALRDYGKRSLPGVNDFWLGINDMVTEGKFLDVHGFAVSFLNWDRAQPSGGKRENCVLFSQSAQGKWSDEACRSSKRYICEFIIPTRTRPLEQKLISEEDLAANDILDYKDDDDKV -0.291

Next: Cohesin-mDCIR (Macaca mulatta) (protein) GLDDLDAVRIKVDTVNAKPGDTVRIPVRFSGIPSKGIANCDFVYSYDPNVLEIIEIEPGDIIVDPNPDKSFDTAVYPDRKIIVFLFAEDSGTGAYAITKDGVFATIVAKVKEGAPNGLSVIKFVEVGGFANNDLVEQKTQFFDGGVNVGDTTEPATPTTPVTTPTTTDDLDAASFQKYSQLLEKMTTKDLVHTTLECVKKNMTTEETAWSCCPKNWKPFSSNCYFISTESASWQKSEKDCARMEAHLLVINTREEQDFIFQNLQEESAYFVGLSDPEGQRHWQWVDRTPYNESSTFWHPHEPSDPDERCVVLNFRKTPKRWGWNDVHCIVHQRSVCEMMKIHLHHHHHH 3.27

Next: Gal 8 (Homo sapiens), O00214 (protein) MMLSLNNLQNIIYNPVIPFVGTIPDQLDPGTLIVIRGHVPSDADRFQVDLQNGSSMKPRADVAFHFNPRFKRAGCIVCNTLINEKWGREEITYDTPFKREKSFEIVIMVKDKFQVAVNGKHTLLYGHRIGPEKIDTLGIYGKVNIHSIGFSFSSDLQSTQASSLELTEISRENVPKSGTPQLPSNRGGDISKIAPRTVYTKSKDSTVNHTLTCTKIPPMNYVSKRLPFAARLNTPMGPGRTVVVKGEVNANAKSFNVDLLAGKSKDIALHLNPRLNIKAFVRNSFLQESWGEEERNITSFPFSPGMYFEMIIYCDVREFKVAVNGVHSLEYKHRFKELSSIDTLEINGDIHLLEVRSW 0.118

Next: SP16665A-bot-344-23-344 (Bacteroides ovatus) (protein) SDNEFPDFDYQTVYFANQYGLRTIELGESEFVDNTLDNQHKMVIKAAWGGGYTNRNNVVINFKVDESLCDNLYFKDTDQPLVPMPASYYTLASDRIAIPKGQIMAGVEVQLTDDFFADEKSISENYVIPLLMTNVQGADSILQGKPVVENPVLTNAGDWSILPQNFVLYAVKYVNPWHGEYLRRGIDHATVAGTSKDIIRHEQFVENDEVVNISTKSMKDNLLTLKTKDESGKDISYTVRLSFAEDGSCTVHSGSQNVVVSGSGKFVSKGEKNSLGGKDRNAIYLDYTVNLTDNNIQLATKDTLVLRTRNVYGGKSLEVVRK -0.266

Next: EUL D1A second (Oryza sativa) (protein) GAATACTIGGVPVHTVRVFSAAGEDYCLTVRNGTACLAPKNPRDDYQHWIKDMRHSNKIRDEEGYPAFALVNKVTGEAIKHSTGQGHPVKLVPYNPEYQDESVLWTESKDVGKGFRCIRMVNNIYLNFDAFHGDKDHGGIHDGTEIVLWKWCEGDNQRWKILPWILEQKLISEEDLNSAVDHHHHHH -0.072

Next: Langerin K313I (Homo sapiens), Q9UJ71 (protein) STLNAQIPELKSDLEKASALNTKIRALQGSLENMSKLLKRQNDILQVVSQGWKYFKGNFYYFSLIPKTWYSAEQFCVSRNSHLTSVTSESEQEFLYKTAGGLIYWIGLTKAGMEGDWSWVDDTPFNKVQSARFWIPGEPNNAGNNEHCGNIKAPSLQAWNDAPCDITFLFICKRPYVPSEP -0.358
